molecular target: KRas G12V (Homo sapiens, UniProt P01116, G12V); assay: biochemical; settings: Binding to KRas (IC50 nM) G12V, TR-FRET displacement, KRas G12V
Sequence (P01116 1-169 isoform P01116-2 G12V): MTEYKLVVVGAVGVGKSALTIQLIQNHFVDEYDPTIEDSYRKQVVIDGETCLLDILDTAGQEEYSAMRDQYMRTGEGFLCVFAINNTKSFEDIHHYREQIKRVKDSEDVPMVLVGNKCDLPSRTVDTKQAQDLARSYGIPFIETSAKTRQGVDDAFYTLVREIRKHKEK
Hi there, I'd appreciate the recorded IC50 for every entry that follows.
Entry rule: numbers only, all in nM.

Ask | State the recorded IC50 for this entry: Oc1cc(N2CCc3c(nc(OC[C@@]45CCCN4C[C@H](F)C5)nc3N3CCCC4(CCSC4)C3)C2)c2c(Cl)c(F)ccc2c1 (stereo partly drawn)
Reply | 8

Ask | Could you share which IC50 value was measured for `Oc1cc(Cl)c(C2CC2)c(N2CCc3c(nc(OCC45CCCN4CCC5)nc3N3CCC[C@]4(C3)C[C@@H](O)C4)C2)c1` ?
Reply | 8

Ask | Which IC50 value is on record for CC1(O)COCCN(c2nc(OCC34CCCN3CCC4)nc3c2CCN(c2cc(O)cc(Cl)c2C2CC2)C3)C1 (stereo not drawn) ?
Reply | 8

====

For each record, write down the corresponding IC50.
tested on: MKN1 cells; assay: Inhibition of KRas-mediated phosphorylation of ERK (Cisbio HTRF pERK), MKN1 cells; assay type: cell-based; conditions: Homo sapiens, MKN-1, 3 hour compound incubation, Cisbio pERK HTRF
Answer in nM, number only, no unit symbol.

Ask | // lookup IC50 | system=MKN1 cells | key= CCc1c(F)ccc2cc(O)cc(N3CCc4c(nc(OC[C@@]56CCCN5C[C@H](F)C6)nc4N4CCCn5nnc(Cl)c5C4)C3)c12 [Example 391]
Reply | 57.6

Ask | State its IC50 on MKN1 cells: CCc1c(F)ccc2cc(O)cc(N3CCc4c(nc(OC[C@@]56CCCN5C[C@H](F)C6)nc4N4CCCn5nc(C(=O)N6CC7CCC(C6)N7)cc5C4)C3)c12 [Example 265]
Reply | 23.1

Ask | Notebook: pull reported IC50 for MKN1 cells, entry CCc1c(F)ccc2cc(O)cc(N3CCc4c(nc(OC[C@@]56CCCN5C[C@H](F)C6)nc4N4CCCn5nc(C(=O)NC)c(OC)c5C4)C3)c12 [Example 320]
Reply | 4.2

Ask | Param readout= IC50; system= MKN1 cells; entry= CCc1c(F)ccc2cc(O)cc(N3CCc4c(nc(OC[C@@]56CCCN5C[C@H](F)C6)nc4N4CCCn5nc(C(=O)N6CCC7CC76)cc5C4)C3)c12 (stereo partly shown) [Example 344] ; returns value.
Reply | 4.1

====

I'd be grateful if you could share measured IC50 for these entries.
target: KRas G13D (Homo sapiens, UniProt P01116, G13D); format: binding; conditions: TR-FRET displacement, read-out: Binding to KRas (IC50 nM) G13D
Sequence (P01116 1-169 isoform P01116-2 G13D): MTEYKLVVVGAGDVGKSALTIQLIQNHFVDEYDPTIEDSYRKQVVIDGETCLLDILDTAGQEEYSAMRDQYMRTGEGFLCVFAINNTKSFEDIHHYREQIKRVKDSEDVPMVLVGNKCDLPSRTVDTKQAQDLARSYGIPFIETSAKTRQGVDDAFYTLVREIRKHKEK
Could you give me the number in nM? Just the number is fine.

Ask | Recorded IC50 of CCc1cccc2cccc(N3CCc4c(nc(OCC5(CN(C)C)CC5)nc4N4CCC(F)C(OC)C4)C3)c12 (stereo not shown) [Example 543] , please.
Reply | 2270

Ask | Reported IC50, compound O=C1CC2(CCCN(c3nc(OCC45CCCN4CCC5)nc4c3CCN(c3cc(O)cc(Cl)c3C3CC3)C4)C2)N1 (stereo not shown) [Example 443] : ____
Reply | 8

Ask | Need IC50 of CCc1cccc2cccc(N3CCc4c(nc(OCC5(CN(C)C)CC5)nc4N4CCCC(c5nnc[nH]5)C4)C3)c12 (stereo not shown) [Example 514] , thanks.
Reply | 372

This collection of values is drawn from patent US20250368649A1.
